target: Histone deacetylase 3/Nuclear receptor corepressor 2 (HDAC3/NCoR2) (Homo sapiens, UniProt O15379); assay: Inhibition of human recombinant HDAC3/NCoR2 using Ac-Leu-Gly-Lys (Ac)-AMC substrate incubated for 30 mins by fluorescence assay; assay type: protein-complex assay
Sequence (O15379 whole entry): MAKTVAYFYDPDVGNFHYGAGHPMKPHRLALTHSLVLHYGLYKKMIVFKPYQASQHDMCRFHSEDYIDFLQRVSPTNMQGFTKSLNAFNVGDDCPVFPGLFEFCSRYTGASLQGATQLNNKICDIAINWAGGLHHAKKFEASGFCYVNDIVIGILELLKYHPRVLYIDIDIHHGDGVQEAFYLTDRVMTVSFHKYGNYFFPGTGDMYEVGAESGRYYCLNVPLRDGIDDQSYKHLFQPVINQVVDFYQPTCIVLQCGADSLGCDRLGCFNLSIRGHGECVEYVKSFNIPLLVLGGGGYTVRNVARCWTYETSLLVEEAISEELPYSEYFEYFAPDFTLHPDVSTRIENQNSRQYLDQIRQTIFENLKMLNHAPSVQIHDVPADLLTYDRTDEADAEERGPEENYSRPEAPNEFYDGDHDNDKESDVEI
Sequence (Q9Y618 whole entry, further chain): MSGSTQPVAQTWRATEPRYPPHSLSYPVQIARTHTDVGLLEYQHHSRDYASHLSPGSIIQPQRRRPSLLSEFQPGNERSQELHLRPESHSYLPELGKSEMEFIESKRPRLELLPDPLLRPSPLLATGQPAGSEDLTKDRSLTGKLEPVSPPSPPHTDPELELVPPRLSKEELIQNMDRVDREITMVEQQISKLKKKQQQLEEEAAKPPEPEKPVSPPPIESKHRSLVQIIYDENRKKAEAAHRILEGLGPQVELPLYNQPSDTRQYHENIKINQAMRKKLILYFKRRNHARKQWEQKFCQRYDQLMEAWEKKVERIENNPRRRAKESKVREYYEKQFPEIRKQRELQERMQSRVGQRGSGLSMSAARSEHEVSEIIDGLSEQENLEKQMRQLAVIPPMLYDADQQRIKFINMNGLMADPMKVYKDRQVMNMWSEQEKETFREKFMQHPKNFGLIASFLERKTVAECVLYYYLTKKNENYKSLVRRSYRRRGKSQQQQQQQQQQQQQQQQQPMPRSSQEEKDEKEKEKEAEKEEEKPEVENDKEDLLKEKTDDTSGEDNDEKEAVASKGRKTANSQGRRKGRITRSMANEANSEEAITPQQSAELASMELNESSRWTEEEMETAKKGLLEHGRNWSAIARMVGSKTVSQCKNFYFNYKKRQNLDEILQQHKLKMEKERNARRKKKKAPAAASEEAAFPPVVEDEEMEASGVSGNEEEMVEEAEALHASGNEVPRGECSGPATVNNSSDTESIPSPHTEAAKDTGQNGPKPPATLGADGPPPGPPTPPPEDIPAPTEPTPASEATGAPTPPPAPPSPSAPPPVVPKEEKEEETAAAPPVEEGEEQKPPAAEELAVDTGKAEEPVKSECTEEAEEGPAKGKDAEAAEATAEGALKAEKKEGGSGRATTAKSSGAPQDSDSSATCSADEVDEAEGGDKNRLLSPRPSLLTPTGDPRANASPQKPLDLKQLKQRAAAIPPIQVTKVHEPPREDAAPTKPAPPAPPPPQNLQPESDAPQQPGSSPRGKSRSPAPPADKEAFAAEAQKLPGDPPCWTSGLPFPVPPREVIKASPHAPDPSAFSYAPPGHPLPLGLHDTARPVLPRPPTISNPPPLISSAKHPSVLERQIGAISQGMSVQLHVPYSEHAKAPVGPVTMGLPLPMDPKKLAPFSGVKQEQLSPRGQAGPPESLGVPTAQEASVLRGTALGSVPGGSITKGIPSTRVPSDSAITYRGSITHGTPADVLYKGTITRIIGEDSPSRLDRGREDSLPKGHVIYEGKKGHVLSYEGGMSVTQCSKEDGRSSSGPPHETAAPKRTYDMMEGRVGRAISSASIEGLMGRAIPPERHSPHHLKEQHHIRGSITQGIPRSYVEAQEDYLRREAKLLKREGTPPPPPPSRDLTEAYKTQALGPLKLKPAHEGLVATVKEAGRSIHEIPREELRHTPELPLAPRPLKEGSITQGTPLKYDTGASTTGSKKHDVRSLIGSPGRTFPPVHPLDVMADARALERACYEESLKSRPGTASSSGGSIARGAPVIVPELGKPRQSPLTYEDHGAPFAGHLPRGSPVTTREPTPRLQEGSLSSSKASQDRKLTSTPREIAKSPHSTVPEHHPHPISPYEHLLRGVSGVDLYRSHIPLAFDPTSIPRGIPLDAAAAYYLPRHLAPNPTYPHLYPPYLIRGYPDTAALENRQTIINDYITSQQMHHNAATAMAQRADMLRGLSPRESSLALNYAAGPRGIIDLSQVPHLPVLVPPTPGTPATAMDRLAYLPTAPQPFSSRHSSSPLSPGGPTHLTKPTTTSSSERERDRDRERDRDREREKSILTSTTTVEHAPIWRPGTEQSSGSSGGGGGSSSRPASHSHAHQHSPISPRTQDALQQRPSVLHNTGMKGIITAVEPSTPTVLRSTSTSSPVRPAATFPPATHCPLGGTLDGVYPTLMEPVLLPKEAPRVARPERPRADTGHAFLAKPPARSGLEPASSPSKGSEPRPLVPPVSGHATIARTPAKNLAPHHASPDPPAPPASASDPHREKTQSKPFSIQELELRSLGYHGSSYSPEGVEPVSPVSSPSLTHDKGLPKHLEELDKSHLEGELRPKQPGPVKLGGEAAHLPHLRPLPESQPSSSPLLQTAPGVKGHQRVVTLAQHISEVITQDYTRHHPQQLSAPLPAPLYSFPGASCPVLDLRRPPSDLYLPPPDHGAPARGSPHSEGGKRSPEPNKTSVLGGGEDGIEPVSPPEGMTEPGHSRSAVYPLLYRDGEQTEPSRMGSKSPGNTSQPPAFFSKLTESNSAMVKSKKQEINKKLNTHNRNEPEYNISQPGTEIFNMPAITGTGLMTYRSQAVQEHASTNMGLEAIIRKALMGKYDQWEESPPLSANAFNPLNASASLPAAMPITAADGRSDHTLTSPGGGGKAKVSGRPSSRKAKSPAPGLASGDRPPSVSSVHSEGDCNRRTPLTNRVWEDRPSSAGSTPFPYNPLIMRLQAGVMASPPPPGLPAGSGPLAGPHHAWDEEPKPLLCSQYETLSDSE
endpointLabel: Ki (nM)
I only need the number, in nM, no unit after it.

Ki reading for CCC[C@H]1NC(=O)[C@@H](Cc2ccc(O)cc2)NC(=O)[C@@H](C)NC(=O)[C@@H](C(C)C)NC(=O)[C@H]1C : 3000

# Ki of CC(C)[C@H]1NC(=O)[C@@H](C)[C@@H](C/C=C\CCC(=O)O)NC(=O)[C@@H](Cc2ccc(O)cc2)NC(=O)[C@@H](C)NC1=O [AZUMAMIDE C] = 18
